From: paper PMC5540273

- Test system: IGF1R;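 further: KINOMEscan kinase panel screen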
- Measurement Conditions: concentration: 1 μM,replicates: in singlicate; n = 1
Overview of recorded %Inh for various compounds

- Structure Smiles String: "Cc1cccc2c(-c3ccncc3)c(-c3ccc(F)cc3)nn12.Cl"
  %Inh, %: 0
- Structure Smiles String: "C[C@@H](Oc1cc(-n2cnc3ccc(-c4ccncc4)cc32)sc1C(N)=O)c1ccccc1Cl"
  %Inh, %: 19
- Structure Smiles String: "C[C@@H]1CNc2c(sc3ccc4nc(-c5ccc(O)cc5)ccc4c23)C(=O)N1"
  %Inh, %: 0
- Structure Smiles String: "Cl.c1ccc(Oc2ccc(Nc3ccnc4cc(-c5ccc(CN6CCNCC6)o5)ccc34)cc2)nc1"
  %Inh, %: 0
